experiment: melting temperature; fluorescence melt of hairpins on a sequencing array, two-state fit, raised by 9.35 °C to match UV melts; conditions: sodium 0.088 M
observable: Tm (°C)
// units = °C; emit number, no label

Query: Returns the measured Tm for the input sequence. Input: GAAGAGCGAAAGCTGTTC (((.(((....))).)))
Response: 49.2

Query: Quick one: Tm for GCGTACAAACGC ((((....)))) ?
Response: 51.1

Query: Field request: Tm | item: GATCGAGGGTCGATC ((((((...))))))
Response: 51

Query: # query: Tm of entry CGGTCGGAAACGATCCG ((((((....))).)))
Response: 50.5

Query: What value of Tm has been recorded for this entry: GGCGTCGAAAGACCGGCC ((((((....)))..)))
Response: 51

Query: # get_value(readout='Tm', item= GCAACGGGAAACCGCTGC (((.(((....))).))) )
Response: 51.5

Query: Need Tm of TCACGGAAACGTGA (((((....))))) , thanks.
Response: 50.9

Query: Need Tm, item GGCTAGGGAAACCTAGTC (.(((((....))))).)
Response: 48.8

Query: Which Tm is reported for this sequence? GGCCTACGAAAGTAAGCC (((.(((....))).)))
Response: 49.5
